Target: dAsCas12a Ultra (Acidaminococcus sp., UniProt U2UMQ6 1-1307, M537R;F870L;D908A;E993A;D1235A)
Assay: Spec-seq (native PAGE EMSA with sequencing of bound and unbound); 25 mM Tris-HCl pH 7.4, 150 mM KCl, 5 mM MgCl2, 10% glycerol, 1 mM DTT, 40 ng/uL salmon sperm DNA; 400 nM Cas12a, 480 nM crRNA, 50 nM library, 37 C 1 h; native PAGE at room temperature; high values mean tight binding
Conditions: protein: recombinant
Measured binding signal by item
All answers are understood in lnKA, so give the number only.

>  <binder>
CTCA (dsDNA) DNA 1: GCTATCTAGTGCTCAGTACGCACTGCTCAAGGAAACTTCTGGCAGGACCAGGTCATGAGATCGGAAGAGCACACGTCTGAACTCCAGTCA DNA 2: TGACTGGAGTTCAGACGTGTGCTCTTCCGATCTCATGACCTGGTCCTGCCAGAAGTTTCCTTGAGCAGTGCGTACTGAGCACTAGATAGC RNA: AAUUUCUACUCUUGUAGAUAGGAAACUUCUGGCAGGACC

>  <display unit>
lnKA

>  <binding signal>
-8.8

$$$$
>  <binder>
GTCT (dsDNA) DNA 1: GCTATCTAGTGCTCAGTACGCACTGGTCTAGGAAACTTCTGGCAGGACCAGGTCATGAGATCGGAAGAGCACACGTCTGAACTCCAGTCA DNA 2: TGACTGGAGTTCAGACGTGTGCTCTTCCGATCTCATGACCTGGTCCTGCCAGAAGTTTCCTAGACCAGTGCGTACTGAGCACTAGATAGC RNA: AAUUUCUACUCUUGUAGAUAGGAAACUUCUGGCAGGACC

>  <display unit>
lnKA

>  <binding signal>
-8.79

$$$$
>  <binder>
TTTC (dsDNA) DNA 1: GCTATCTAGTGCTCAGTACGCACTGTTTCAGGAAACTTCTGGCAGGACCAGGTCATGAGATCGGAAGAGCACACGTCTGAACTCCAGTCA DNA 2: TGACTGGAGTTCAGACGTGTGCTCTTCCGATCTCATGACCTGGTCCTGCCAGAAGTTTCCTGAAACAGTGCGTACTGAGCACTAGATAGC RNA: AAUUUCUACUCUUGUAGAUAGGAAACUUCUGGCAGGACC

>  <display unit>
lnKA

>  <binding signal>
-0.0656

$$$$

Please give the measured binding signal for this binder: TATG (dsDNA) DNA 1: GCTATCTAGTGCTCAGTACGCACTGTATGAGGAAACTTCTGGCAGGACCAGGTCATGAGATCGGAAGAGCACACGTCTGAACTCCAGTCA DNA 2: TGACTGGAGTTCAGACGTGTGCTCTTCCGATCTCATGACCTGGTCCTGCCAGAAGTTTCCTCATACAGTGCGTACTGAGCACTAGATAGC RNA: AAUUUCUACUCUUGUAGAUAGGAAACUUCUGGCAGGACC -8.06

Also TGTA (dsDNA) DNA 1: GCTATCTAGTGCTCAGTACGCACTGTGTAAGGAAACTTCTGGCAGGACCAGGTCATGAGATCGGAAGAGCACACGTCTGAACTCCAGTCA DNA 2: TGACTGGAGTTCAGACGTGTGCTCTTCCGATCTCATGACCTGGTCCTGCCAGAAGTTTCCTTACACAGTGCGTACTGAGCACTAGATAGC RNA: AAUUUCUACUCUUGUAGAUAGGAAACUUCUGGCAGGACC , if possible. -6.4
